Values were extracted from the supplement of paper PMC10567573.

B1: STK38L (parent)
chain: RQLAYSTVGTPDYIAPEVFMQTGY

Variants of: B1
assay.info: protein stability index of a GFP-peptide fusion (GPS, HEK-293T) (PSI 1-6); higher = more stable;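 note: lentivirally expressed fusions sorted by FACS into six bins by GFP to DsRed ratio, PSI derived from sequencing read proportions per bin multiplied by bin number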
condition.label: c terminus: a fixed tail appended
This section presents variants with their documented protein stability index values.
Write the number on its own, no unit after it.

Example entries begin here.
T22L    1.96
T22V    1.68
P11D    2.36
Y5A    3.06
A15K    2.46
T10A    2.88

// recorded protein stability index for `E17P` : 2.12

// recorded protein stability index for `F19R` : 3.81

// recorded protein stability index for `T22F` : 2.09

// recorded protein stability index for `Q21S` : 2.74

// recorded protein stability index for `Q2G` : 1.84

// recorded protein stability index for `G9Q` : 2.77

// recorded protein stability index for `T22K` : 2.32

// recorded protein stability index for `P11A` : 2.64

// recorded protein stability index for `P16N` : 2.81

// recorded protein stability index for `V18F` : 2.28

// recorded protein stability index for `M20T` : 2.85

// recorded protein stability index for `A15M` : 2.19

// recorded protein stability index for `Y13S` : 4.05

// recorded protein stability index for `S6M` : 1.79

// recorded protein stability index for `D12H` : 2.54

// recorded protein stability index for `A15P` : 3.29

// recorded protein stability index for `L3R` : 3.09

// recorded protein stability index for `P11T` : 2.44

// recorded protein stability index for `Y5M` : 2.95

// recorded protein stability index for `T10P` : 2.48

// recorded protein stability index for `V8T` : 2.83
